- measurement_notes: Plasma pharmacokinetics in infected vervet monkeys (HPLC-MS/MS)
- Format: in vivo, vervet monkey
- condition_notes: monkey, in vivo, po, 10 mg/kg/day, after oral DB868 10 mg/kg/day; read-out: Geometric mean Cmax (range) of DB829

| smiles_input | Cmax (µM) |
| --- | --- |
| N=C(N)c1ccc(-c2ccc(-c3ccc(C(=N)N)cn3)o2)nc1 | 0.27 |

====

- measurement_notes: Plasma pharmacokinetics in infected vervet monkeys (HPLC-MS/MS)
- Format: in vivo, vervet monkey
- condition_notes: monkey, in vivo, im, 5 mg/kg, plasma DB829 after 5th IM dose; Group 2 = 5 mg/kg × 5 alternating days; read-out: Tmax (converted)

| smiles_input | Tmax / min |
| --- | --- |
| N=C(N)c1ccc(-c2ccc(-c3ccc(C(=N)N)cn3)o2)nc1 | 57.6 |

====

- measurement_notes: Plasma pharmacokinetics in infected vervet monkeys (HPLC-MS/MS)
- Type: in vivo, vervet monkey
- condition_notes: monkey, in vivo, po, 3 mg/kg/day, after oral DB868 3 mg/kg/day; read-out: Geometric mean Cmax (range) of DB829

| smiles_input | Cmax / nM |
| --- | --- |
| N=C(N)c1ccc(-c2ccc(-c3ccc(C(=N)N)cn3)o2)nc1 | 85 |

====

- measurement_notes: Plasma pharmacokinetics in infected vervet monkeys (HPLC-MS/MS)
- Assay type: in vivo, vervet monkey
- condition_notes: monkey, in vivo, po, 20 mg/kg/day, after oral DB868 20 mg/kg/day; read-out: Geometric mean Cmax (range) of DB829

| molecule | unit_annotation | Cmax |
| --- | --- | --- |
| N=C(N)c1ccc(-c2ccc(-c3ccc(C(=N)N)cn3)o2)nc1 [DB829, 2,5-bis(5-amidino-2-pyridyl)furan] | nM | 530 |

====

- measurement_notes: Plasma pharmacokinetics in infected vervet monkeys (HPLC-MS/MS)
- Assay type: in vivo, vervet monkey
- condition_notes: monkey, in vivo, po, given IM or orally as DB868; range over monkeys; read-out: half-life for DB829
property_measured: half-life

| smiles_input | result |
| --- | --- |
| N=C(N)c1ccc(-c2ccc(-c3ccc(C(=N)N)cn3)o2)nc1 | 33 to 180 days |

====

- measurement_notes: Plasma pharmacokinetics in infected vervet monkeys (HPLC-MS/MS)
- Type: in vivo, vervet monkey
- condition_notes: plasma DB829 after the 10th oral dose of DB868, 3 mg/kg × 10 days; read-out: Cmax
property_measured: Cmax (µM)

| compound | property_measured | numeric_result |
| --- | --- | --- |
| N=C(N)c1ccc(-c2ccc(-c3ccc(C(=N)N)cn3)o2)nc1 [DB829, 2,5-bis(5-amidino-2-pyridyl)furan] | Cmax | 0.11 |

====

- measurement_notes: Plasma pharmacokinetics in infected vervet monkeys (HPLC-MS/MS)
- Format: in vivo, vervet monkey
- condition_notes: monkey, in vivo, po, 20 mg/kg/day, plasma DB829 after the 10th oral dose of DB868, 20 mg/kg × 10 days; read-out: Cmax
- Source text: Parasitaemia post-infection was monitored daily, using ear-prick capillary blood, through the completion of DB868 and DB829 treatment. […] Pharmacokinetic outcomes were monitored for a minimum of 60 days post-LDD as described previously. […] Plasma samples were processed for quantification of DB868 and DB829 by high performance liquid chromatography-tandem mass spectrometry (HPLC-MS/MS) as described previously. […]
property_measured: Cmax (nM)

| smiles_input | numeric_result |
| --- | --- |
| N=C(N)c1ccc(-c2ccc(-c3ccc(C(=N)N)cn3)o2)nc1 | 460 |

====

- measurement_notes: Plasma pharmacokinetics in infected vervet monkeys (HPLC-MS/MS)
- Format: in vivo, vervet monkey
- condition_notes: monkey, in vivo, po, after oral DB868, three treatment groups; read-out: Median plasma Tmax for DB829 (converted)
property_measured: Tmax (h)

| smiles_input | numeric_result |
| --- | --- |
| N=C(N)c1ccc(-c2ccc(-c3ccc(C(=N)N)cn3)o2)nc1 | 7.92 |

====

- measurement_notes: Plasma pharmacokinetics in infected vervet monkeys (HPLC-MS/MS)
- Format: in vivo, vervet monkey
- condition_notes: monkey, in vivo, im, 5 mg/kg, after 5th IM dose; Group 2 = 5 mg/kg × 5 alternating days; read-out: t½ (terminal half-life) (converted)

| molecule | unit_annotation | half-life |
| --- | --- | --- |
| N=C(N)c1ccc(-c2ccc(-c3ccc(C(=N)N)cn3)o2)nc1 [DB829, 2,5-bis(5-amidino-2-pyridyl)furan] | days | 130 |

====

- measurement_notes: Plasma pharmacokinetics in infected vervet monkeys (HPLC-MS/MS)
- Assay type: in vivo, vervet monkey
- condition_notes: plasma DB829 after 5th IM dose; Group 1 = 5 mg/kg × 5 consecutive days; 5 mg/kg; read-out: Cmax

| smiles_input | Cmax / µM |
| --- | --- |
| N=C(N)c1ccc(-c2ccc(-c3ccc(C(=N)N)cn3)o2)nc1 | 15 |

====

- measurement_notes: Plasma pharmacokinetics in infected vervet monkeys (HPLC-MS/MS)
- Type: in vivo, vervet monkey
- condition_notes: monkey, in vivo, po, 3 mg/kg/day, plasma DB829 after the 10th oral dose of DB868, 3 mg/kg × 10 days; read-out: Cmax

| smiles_input | Cmax |
| --- | --- |
| N=C(N)c1ccc(-c2ccc(-c3ccc(C(=N)N)cn3)o2)nc1 | 60 nM |

====

- measurement_notes: Plasma pharmacokinetics in infected vervet monkeys (HPLC-MS/MS)
- Format: in vivo, vervet monkey
- condition_notes: plasma DB829 after 5th IM dose; Group 3 = 2.5 mg/kg × 5 consecutive days; 2.5 mg/kg; read-out: Cmax
property_measured: Cmax (µM)

| smiles_input | numeric_result |
| --- | --- |
| N=C(N)c1ccc(-c2ccc(-c3ccc(C(=N)N)cn3)o2)nc1 | 5.9 |

====

- measurement_notes: CSF DB829 concentrations in infected vervet monkeys
- Assay type: in vivo, vervet monkey
- condition_notes: monkey, CSF, intramuscular, 5 mg/kg/day, IM 5 mg/kg/day consecutive-day dose group; 1 h post-LDD; read-out: geometric mean CSF DB829 concentration

| smiles_input | concentration at 1 h / nM |
| --- | --- |
| N=C(N)c1ccc(-c2ccc(-c3ccc(C(=N)N)cn3)o2)nc1 | 14 |

====

- measurement_notes: Plasma pharmacokinetics in infected vervet monkeys (HPLC-MS/MS)
- Assay type: in vivo, vervet monkey
- condition_notes: monkey, in vivo, po, 10 mg/kg/day, plasma DB829 after the 10th oral dose of DB868, 10 mg/kg × 10 days; read-out: Cmax
- Text: Parasitaemia post-infection was monitored daily, using ear-prick capillary blood, through the completion of DB868 and DB829 treatment. […] Pharmacokinetic outcomes were monitored for a minimum of 60 days post-LDD as described previously. […] Plasma samples were processed for quantification of DB868 and DB829 by high performance liquid chromatography-tandem mass spectrometry (HPLC-MS/MS) as described previously. […]
property_measured: Cmax (nM)

| smiles_input | property_measured | numeric_result |
| --- | --- | --- |
| N=C(N)c1ccc(-c2ccc(-c3ccc(C(=N)N)cn3)o2)nc1 | Cmax | 410 |

====

- measurement_notes: Plasma pharmacokinetics in infected vervet monkeys (HPLC-MS/MS)
- Type: in vivo, vervet monkey
- condition_notes: monkey, in vivo, po, after oral DB868, three treatment groups; read-out: range of plasma Tmax for DB829
- Text: Parasitaemia post-infection was monitored daily, using ear-prick capillary blood, through the completion of DB868 and DB829 treatment. […] Pharmacokinetic outcomes were monitored for a minimum of 60 days post-LDD as described previously. […] Plasma samples were processed for quantification of DB868 and DB829 by high performance liquid chromatography-tandem mass spectrometry (HPLC-MS/MS) as described previously. […]

| smiles_input | Tmax |
| --- | --- |
| N=C(N)c1ccc(-c2ccc(-c3ccc(C(=N)N)cn3)o2)nc1 | 0.96 to 48 h |

Where do the numbers come from? From paper PMC4318582.
